Biological target: Recombinant human IL-1β (BioLegend 579404) (human, UniProt P01584 117-269)
Test: cell-based or functional assay
Starred links: 1 amine or outer side, 2 acyl side, 3 side chain; linkers in the order of their positions; H or OH if unused. Non-standard residues stand in square brackets, D forms with d. dProc4CH21Naph4F = (2R,4R)-4-[(4-fluoro-1-naphthyl)methyl]pyrrolidine-2-carboxylic acid, O=C([C@H]1C[C@@H](Cc2ccc(F)c3ccccc23)CN1[*:1])[*:2]; alTOMe = (2S,3S)-2-amino-3-methoxy-butanoic acid, CO[C@@H](C)[C@H](N[*:1])C(=O)[*:2]; dPro(4R-(4-pyridylmethyl)) = O=C(O)[C@H]1C[C@@H](Cc2ccncc2)CN1; Trp(βS-Me,4-F) = C[C@@H](c1c[nH]c2cccc(F)c12)[C@H](N)C(=O)O; Bip(4'-COOH) = N[C@@H](Cc1ccc(-c2ccc(C(=O)O)cc2)cc1)C(=O)O; Phe(2-Cl,4-COOH) = N[C@@H](Cc1ccc(C(=O)O)cc1Cl)C(=O)O; 1Nal(3S-Me) = C[C@@H](c1cccc2ccccc12)[C@H](N)C(=O)O; Ala(pyrimidin-5-yl) = N[C@@H](Cc1cncnc1)C(=O)O; Phe(4-COOH) = N[C@@H](Cc1ccc(C(=O)O)cc1)C(=O)O; Trp(4-F) = N[C@@H](Cc1c[nH]c2cccc(F)c12)C(=O)O; Bip = N[C@@H](Cc1ccc(-c2ccccc2)cc1)C(=O)O; Pro(cis-4-F) = O=C(O)[C@@H]1C[C@H](F)CN1; d(αMeF) = C[C@@](N)(Cc1ccccc1)C(=O)O; cisHyp = O=C(O)[C@@H]1C[C@H](O)CN1; d(αMeD) = C[C@@](N)(CC(=O)O)C(=O)O; 4Pal = N[C@@H](Cc1ccncc1)C(=O)O; aThr = C[C@H](O)[C@H](N)C(=O)O; Dab = NCC[C@H](N)C(=O)O; Aib = CC(C)(N)C(=O)O
value.kind: MRC5 IC50 (pM)
Use pM as the unit, but write only the number.

Measured MRC5 IC50 of cyclo([Bip(4'-COOH)][4Pal][Phe(2-Cl,4-COOH)]G[Pro(cis-4-F)][1Nal(3S-Me)][Aib]SW[d(αMeD)][aThr]Q[Dab]G[dPro(4R-(4-pyridylmethyl))]) (ring closure inferred) [SEQ ID NO 354] : 14

Measured MRC5 IC50 of cyclo([Bip][4Pal][Phe(4-COOH)]G[cisHyp][Trp(βS-Me,4-F)][Aib]SW[d(αMeD)][Ala(pyrimidin-5-yl)]Q[Dab]G[dPro(4R-(4-pyridylmethyl))]) (ring closure inferred) [SEQ ID NO 264] : 17

Measured MRC5 IC50 of cyclo([Bip(4'-COOH)][4Pal][Phe(4-COOH)]G[Pro(cis-4-F)][Trp(βS-Me,4-F)][Aib]S[Trp(4-F)][d(αMeD)][Ala(pyrimidin-5-yl)]Q[Dab]G[dPro(4R-(4-pyridylmethyl))]) (ring closure inferred) [SEQ ID NO 252] : 13

Measured MRC5 IC50 of cyclo([Bip(4'-COOH)][4Pal][Phe(4-COOH)]G[Pro(cis-4-F)][Trp(βS-Me,4-F)][Aib]SW[d(αMeD)][dS]Q[Dab]G[dPro(4R-(4-pyridylmethyl))]) (ring closure inferred) [SEQ ID NO 242] : 19

Measured MRC5 IC50 of cyclo([Bip(4'-COOH)][4Pal][Phe(4-COOH)]G[Pro(cis-4-F)][Trp(βS-Me,4-F)][Aib]SW[d(αMeD)][Ala(pyrimidin-5-yl)]Q[Dab]G[dProc4CH21Naph4F]) (ring closure inferred) [SEQ ID NO 327] : 16

Measured MRC5 IC50 of cyclo([Bip(4'-COOH)][4Pal][Phe(4-COOH)]G[Pro(cis-4-F)][Trp(βS-Me,4-F)][Aib]SW[d(αMeF)][aThr]Q[Dab]G[dPro(4R-(4-pyridylmethyl))]) (ring closure inferred) [SEQ ID NO 257] : 21

Measured MRC5 IC50 of cyclo([Bip(4'-COOH)][4Pal][Phe(4-COOH)]G[Pro(cis-4-F)][Trp(βS-Me,4-F)][Aib]SW[d(αMeD)][alTOMe]Q[Dab]G[dPro(4R-(4-pyridylmethyl))]) (ring closure inferred) [SEQ ID NO 254] : 13
